- System: NCI-H522 lung
- protocol summary: NCI tumour cell line growth inhibition, 48 h
# TGI per record follows
Report only the number, with the unit µM understood.

Dear colleague, I am looking for the recorded TGI of the following compound: O=C1c2cc([N+](=O)[O-])cc3cc([N+](=O)[O-])cc(c23)C(=O)N1CCCNCCNCCCN1C(=O)c2cc([N+](=O)[O-])cc3cc([N+](=O)[O-])cc(c23)C1=O
1.13

I'd like to know its TGI. The compound in question is COc1c(O)c(O)c2c(c1O)C(=O)c1cc(C)cc(O)c1C2=O
48.1

GET /values?readout=TGI&item= Cc1nn(-c2ccccc2)c2nc3c(nc12)C1=NCCN1C(c1ccc(Cl)cc1)N3 (stereo not drawn)
7.14

Would you mind telling me what TGI value was observed for COc1cc(/C=C2\C(=O)N(c3ccccc3)c3ccccc32)cc(OC)c1OC ?
23.3

====

- Tested on: SK-MEL-5 melanoma
- protocol summary: NCI tumour cell line growth inhibition, 48 h
Overview of reported TGI across a group of compounds:

Use these answered entries as a reference point.
CCC[CH2][Sn]1([CH2]CCC)[O]CC(CN2CCOCC2)[O]1 (stereo not drawn) | 18.2 µM
CCC1c2[nH]c3ccccc3c2C[C@H]2C(=O)N3CCC[C@H]3C(=O)N12 (stereo partly drawn) | > 100 µM
CCCc1nc(NC#N)nc(C(=O)NC23CC4CC(CC(C4)C2)C3)c1C | > 100 µM
COC(=O)c1cnn2c1ccc1ccccc12 | > 100 µM
O=C1CC[C@H](c2ccc(O)c3c2C(=O)[C@@H]2O[C@@H]2C3=O)c2cccc(O)c21 | 12.1 µM

What is its TGI for SK-MEL-5 melanoma? Entry: COc1cc2c(cc1OC)-c1c(oc3cc(OC4OC(CO)C(O)C(O)C4O)c(OC)cc3c1=O)C(O)O2 (stereo not drawn)
> 100 µM

For SK-MEL-5 melanoma, provide TGI of CCn1c(-c2nonc2N)nc2cncc(C(=O)NCCNC)c21 please.
> 25 µM

Entry COCCN(CCOC)C(=O)COc1c2cc(C(C)(C)C)cc1Cc1cc(C(C)(C)C)cc(c1OCC(=O)N(CCOC)CCOC)Cc1cc(C(C)(C)C)cc(c1OCC(=O)N(CCOC)CCOC)Cc1cc(C(C)(C)C)cc(c1OCC(=O)N(CCOC)CCOC)Cc1cc(C(C)(C)C)cc(c1OCC(=O)N(CCOC)CCOC)C2 , system SK-MEL-5 melanoma: what TGI was measured?
2.78 µM

Give SK-MEL-5 melanoma TGI for NC(=O)Nc1ccc(C(=O)NCCCNC(=O)c2ccc(NC(N)=O)cc2)cc1
> 100 µM

====

- System: SF-295 CNS
- protocol summary: NCI tumour cell line growth inhibition, 48 h
reported property: TGI

Answered examples (3):
Cc1c(-c2nnc(-c3ccc(F)cc3)o2)nnn1-c1ccnc2c(C(F)(F)F)cccc12 | > 100 µM
COC1=CC(c2ccc[nH]2)=N/C1=C\c1[nH]c(C)c(C(C)=O)c1C | > 100 µM
COc1ccc2oc(=O)c(-c3nc4ccccc4o3)cc2c1 | > 100 µM

What does the data say about its TGI? Entry: C/C=C1/CN2CCC34c5ccccc5N(C)C23C2CC1C4(C(=O)OC)C(O)O2 (centres undefined)
> 100 µM

Record request: TGI value, item CC(CO)(CBr)COC(=O)c1cc(Br)c(N)c(Br)c1 (centres undefined)
> 100 µM

Which TGI value belongs to CC[C@@H]1CC[C@@H]2[C@H](CC[C@]3(C)[C@@H](O)CC[C@@H]23)[C@H]1CO ?
> 100 µM

Which TGI is listed for C[C@]12CC[C@H]3[C@@H](CCC4=CC(=O)CC[C@@]43C)[C@@H]1CC[C@@H]2C(=O)Nc1ccc([N+](=O)[O-])c(C(F)(F)F)c1 ?
31.7 µM

So what's the measured TGI for this one? C/C(=N\Nc1nc2ccccc2s1)c1cnccn1
> 23.5 µM

Form field: reported TGI of COc1ccc2nc3cc([N+](=O)[O-])ccc3c(Nc3ccc(S(=O)(=O)N=C(N)N)cc3)c2c1
> 100 µM

Can you look up the measured TGI of COc1nc(N)nc2c1ncn2[C@@H]1O[C@H](CO)[C@@H](O)[C@@H]1O for me?
> 100 µM

Requested read-out: TGI. Entry: CNC(=O)C1CCCN1C(=O)C(Cc1cnc[nH]1)NC(=O)C1CCC(=O)N1 (centres undefined)
> 100 µM

====

Readings of TGI for the listed molecules
- Tested on: HOP-62 NSCLC
- protocol summary: NCI tumour cell line growth inhibition, 48 h

The cases that follow already have their TGI on record.
COc1cc([C@H]2CC(=O)C[C@@H](c3cc(OC)c(OC)c(OC)c3)C23C(=O)c2ccccc2C3=O)cc(OC)c1OC | > 100 µM
Cc1ccc([N+](=O)[O-])cc1S(=O)(=O)Nc1ccc(C2=NN(C(=O)c3ccccc3)C(c3cccs3)C2)cc1 (stereo not given) | 78.3 µM
C/C=N\n1c(C)c(C#N)c(C#N)c1N | > 100 µM

Value wanted: TGI (HOP-62 NSCLC) of entry COc1ccc(-c2cc(-c3cc(C)ccc3O)[nH]c(=O)n2)cc1
76.4 µM

Find the measured TGI: item COc1ccc(-c2nn(-c3cccc(NC(=O)c4cccc(C(F)(F)F)c4)c3)cc2-c2ccncc2)cc1Cl , target or system HOP-62 NSCLC.
> 100 µM

====

- Test system: MDA-MB-231 breast
- protocol summary: NCI tumour cell line growth inhibition, 48 h
reported property: TGI

Consider the following illustrative entries.
CCn1c(-c2nonc2N)nc2cncc(C(=O)NCCNC)c21 | > 25 µM
COC(=O)C1(Cc2cccc(C)c2)Cc2c(C)cccc2C1=O (stereo not given) | > 100 µM
CNCCCNC1(c2cc3ccccc3s2)CCCCC1 | 12.6 µM
O=C(O)c1ccccc1-c1ccccc1C(=O)Nc1ccc2c(c1)[nH]c(=O)c1ccccc12 | > 100 µM
CSc1ccc(-c2cc(-c3nc4ccccc4[nH]3)nc(N)c2C#N)cc1 | 36.1 µM
COc1ccc2c(c1)CCN1CCCc3ccc(OC)cc3C21 (stereo not given) | > 100 µM
CCCC1=C(C(=O)OCC)C(c2ccccc2OC)C(C#N)=C(N)O1 (stereo not given) | 57.6 µM
COc1ccc2nc3cc([N+](=O)[O-])ccc3c(Nc3ccc(S(=O)(=O)N=C(N)N)cc3)c2c1 | > 100 µM
O=C(CN1C(=O)S/C(=C\C(Cl)=C\c2ccccc2)C1=O)NCCc1ccc(O)cc1 | 6.52 µM
C=C(C)[C@@H]1CC[C@]2(C(=O)O)CC[C@]3(C)[C@H](CC[C@@H]4[C@@]5(C)C/C(=C/c6ccc(OC)cc6)C(=O)C(C)(C)[C@@H]5CC[C@]43C)[C@@H]12 | 7.78 µM

Quick one: TGI for CCC(CCN)(CCN)[N+](=O)[O-] ?
> 100 µM

Recorded TGI of C=C(C)[C@@H]1CCC2=C[C@H](OC2=O)[C@@]2(C)C[C@@H]2C(=O)/C=C(/C)C(=O)[C@H]1OC(C)=O , please.
> 100 µM

So what's the measured TGI for this one? COc1cc([C@H]2CC(=O)C[C@@H](c3cc(OC)c(OC)c(OC)c3)C23C(=O)c2ccccc2C3=O)cc(OC)c1OC
> 100 µM

Find the recorded TGI belonging to CCOC(=O)c1[nH]cc(C)c1-c1c[nH]c2ccccc12 and report it.
> 58.9 µM

Given the entry CNS(=O)(=O)c1ccc2[nH]c(O)c(C3=Nc4ccccc4C3=O)c2c1 , report its measured TGI.
> 100 µM

====

- Test system: NCI-H226 lung
- protocol summary: NCI tumour cell line growth inhibition, 48 h
reported property: log10(TGI) (log10 of the value in µM)
Note the log scale: values are log10 of TGI expressed in µM.

O=C1CC[C@H](c2ccc(O)c3c2C(=O)[C@@H]2O[C@@H]2C3=O)c2cccc(O)c21 | 1.09

Request the reported log10(TGI) associated with O=C1CCC(N2Cc3c(C#CCCCNC(=O)c4cc5c(o4)C(=O)c4ccccc4C5=O)cccc3C2=O)C(=O)N1 (centres undefined)
1.48

I have this molecule here, N#CCCOCN(CO)c1nc(N(CO)COCCC#N)nc(N(CO)COCCC#N)n1 , and I need its recorded log10(TGI).
1.73

Please give the measured log10(TGI) for this molecule: CC(=O)OC1CC2C(C)(C)C(=O)C=C[C@]2(C)C2CCC3(C)C(c4ccoc4)[C@@H](O)[C@H]4O[C@]43[C@]12C (some centres undefined)
1.53

# input molecule: CNCCCNC1(c2cc3ccccc3s2)CCCCC1 ; wanted: its log10(TGI)
1.56

Find the recorded log10(TGI) belonging to O=C(Nc1ccc(OCc2nnc(-c3ccccc3)o2)c(F)c1)Nc1ccc(Cl)c(C(F)(F)F)c1 and report it.
1.45

Looking for the measured log10(TGI) of Cc1c2cc[n+](C)cc2c(C)c2c1[nH]c1ccc(Cl)cc12 , can you help?
0.66
